# Lookup of reported TGI keyed by entry
Tested on: 786-0 renal
assay-explanation: NCI tumour cell line growth inhibition, 48 h

compound | endpoint-unit | value-operator | TGI
COc1cc2c(cc1OC)/C(=C\c1ccccc1N)C(=O)OC2 | µM | = | 9.96
CCCC(=O)OC1C(CO)OC(n2cc(F)c(=O)[nH]c2=O)C1F (stereo unspecified) | µM | > | 100
CCOC(=O)c1ccc(N=c2sc3ccccc3nc2Nc2ccc(C(=O)OCC)cc2)cc1 | µM | = | 64.8
OCC#Cc1ccccc1C#CCCCCCC#Cc1ccccc1C#CCO | µM | = | 32.3
Nn1c(Cc2ccc([N+](=O)[O-])cc2)n[nH]c1=O | µM | > | 100
OC(c1cc(C23CC4CC(CC(C4)C2)C3)nc2c(Cl)cc(Cl)cc12)C1CCCCN1 (stereo unspecified) | µM | = | 3.21
CO/N=C(\C)CCC#Cc1ccccc1C(=O)OC | µM | > | 10
CC(C)CC(NC(=O)OC(C)(C)C)C(=O)Nc1ccc(Nc2nc(F)nc(-c3c4ccccc4cn3C)n2)cc1 (stereo unspecified) | µM | > | 100
COc1cc(Cc2nccc3cc(OC)c(OC)cc23)c(N=NN(C)C)cc1OC | µM | = | 18.6
CO/N=C(\C)c1cccc(Nc2c3ccccc3nc3occc23)c1 | µM | = | 29.7
CC(=O)Nc1ccc(C2SCc3nc4ccccc4n32)cc1 (stereo unspecified) | µM | > | 100

* * *

# Lookup of reported TGI keyed by entry
Test system: SNB-19 CNS
assay-explanation: NCI tumour cell line growth inhibition, 48 h
*1 amine or outer side, *2 acyl side, *3 side chain or, on linkers, in order; H or OH if unused. Where a SMILES comes first, the peptide text is derived from it. [ ]: non-standard residue; d: D form. X32 = C[C@H](N[*:1])C(=O)C(C)(C)C(=O)[*:2]; Hmpa(2S,3S) = CC[C@H](C)[C@H](O)C(=O)O; NMeY = CN[C@@H](Cc1ccc(O)cc1)C(=O)O; NMeL = CN[C@@H](CC(C)C)C(=O)O; NMeV = CN[C@H](C(=O)O)C(C)C; βAla = NCCC(=O)O

compound | TGI
CCN(CC)c1ccc(C(=O)c2ccc(N(CC)CC)cc2)cc1 | > 100 µM
COc1cc(C(O)(CC#N)c2cc3c(cc2Br)OCO3)cc(OC)c1OC (configuration not stated) | 76.1 µM
COc1ccc(/C=C2\CCC(C)C3=C2N=c2s/c(=C/c4cccc(Br)c4)c(=O)n2C3c2ccc(OC)c(OC)c2)cc1OC (configuration not stated) | > 100 µM
N#CC1CC2(CCN1C(=O)c1ccccc1)OCCO2 (configuration not stated) | > 100 µM
COCN1C(=O)[C@@H]2CCCN2C(=O)c2cc(N)ccc21 | > 100 µM
Cn1cc2ccccc2c1-c1nc(F)nc(OCC(=O)[C@H]2CCC3[C@@H]4CCC5=CC(=O)CC[C@]5(C)C4[C@@H](O)C[C@@]32C)n1 (some centres not stated) | 36 µM
O=C(Nc1ccc([N+](=O)[O-])cc1Cl)c1cccc([N+](=O)[O-])c1O | > 100 µM
NC(N)=NS(=O)(=O)c1ccc(Nc2c3ccccc3nc3c(C(=O)Nc4ccc(S(N)(=O)=O)cc4)cccc23)cc1 | > 100 µM
COc1ccc(OCC(=O)O)c(C(=O)CCC(=O)O)c1 | > 100 µM
C[C@@H]1CC[C@@H]2[C@@H](C1)O[C@@H]([C@H](C)OCc1ccccc1)SC2(C)C | 36.8 µM
CC(C)/C(Cl)=N\OC(=O)Nc1cccc(Cl)c1 | > 100 µM
CN(C)c1ccc(/C=c2\sc3nc4ccccc4n3c2=O)cc1 | > 100 µM
COc1cc(Cc2nccc3cc(OC)c(OC)cc23)c(N=NN(C)C)cc1OC | 85.2 µM
O=C1c2ccc(O)c(O)c2C(=O)c2c(O)ccc(O)c21 | 85.3 µM
CCOC(=O)c1ccc(N=c2sc3ccccc3nc2Nc2ccc(C(=O)OCC)cc2)cc1 | > 100 µM
CC[C@H](C)[C@@H]1OC(=O)CCNC(=O)[C@@H](C)NC(=O)C(C)(C)C(=O)[C@H](C)NC(=O)[C@H](Cc2ccc(OC)cc2)N(C)C(=O)[C@H](C(C)C)N(C)C(=O)CNC(=O)[C@H](CC(C)C)N(C)C(=O)CNC1=O (cyclo(G[NMeL]G[NMeV][NMeY](Me)[X32][dA][βAla][Hmpa(2S,3S)])) | 9.63 µM
O=C(OC[C@H]1O[C@H](OC(=O)c2cc(O)c(O)c(OC(=O)c3cc(O)c(O)c(O)c3)c2)[C@H](OC(=O)c2cc(O)c(O)c(OC(=O)c3cc(O)c(O)c(O)c3)c2)[C@@H](OC(=O)c2cc(O)c(O)c(OC(=O)c3cc(O)c(O)c(O)c3)c2)[C@@H]1OC(=O)c1cc(O)c(O)c(OC(=O)c2cc(O)c(O)c(O)c2)c1)c1cc(O)c(O)c(OC(=O)c2cc(O)c(O)c(O)c2)c1 | > 25 µM

* * *

Test system: HS 578T breast
assay-explanation: NCI tumour cell line growth inhibition, 48 h
Where a SMILES comes first, the peptide text is derived from it. [ ]: non-standard residue; d: D form. The star is where a group is joined. Phe(4-NO2) = N[CH](Cc1ccc([N+](=O)[O-])cc1)C(=O)O; Boc = CC(C)(C)OC(=O)*
endpoint: TGI

molecule | observed-value
C=C1C2C[C@@H]3O[C@H]4C[C@H]5O[C@@]6(C[C@@H]7O[C@]8(C[C@H](C)[C@@H]9O[C@@H]%10CC(CO)O[C@@H]%10C[C@@H]9O8)C[C@H](C)[C@@H]7O6)C[C@H]5O[C@H]4[C@H](C)[C@H]3OC(=O)C[C@H]3CC[C@@H]4OC5[C@H]6O[C@]7(CC[C@H]8CC(=C)[C@H](CC[C@@H](C[C@H]1C)O2)O8)CC6O[C@@H]5[C@@H](O7)[C@H]4O3 (stereo not given in full) | < 0.0001 µM
C/C(=N\NC(=S)NCCCNC(=S)N/N=C(\C)c1ccccn1)c1ccccn1 | > 100 µM
O=C1c2ccccc2-c2c1c1ccccc1c(=O)n2CCCn1ccnc1 | 94.7 µM
COC(=O)CC[C@H](Cc1ccccc1)NC(=O)c1csc([C@@H](C[C@H](C(C)C)N(C)C(=O)[C@@H](NC(=O)[C@H]2CCCCN2C)C(C)C)OC(C)=O)n1 | > 25 µM
CO/N=C(\C)c1cccc(Nc2c3ccccc3nc3occc23)c1 | 41 µM
Cc1cc(N2CCOCC2)cc2[nH]c(-c3c(NC[C@@H](O)c4cccc(Cl)c4)cc[nH]c3=O)nc12 | 4.42 µM
N#Cc1cnc(N)nc1NCC1(CO)CC(CCc2ccccc2)C1 (stereo not given) | > 100 µM
CC1(C)OCC=CCO1 | > 100 µM
O=C(O)CN1C(=O)C(Cc2ccc(O)cc2)N=C(c2cccc(O)c2)c2ccccc21 (stereo not given) | > 100 µM
O=C1CCc2c(sc3[nH]c(=S)n(Cc4ccc(Cl)cc4)c(=O)c23)C1 | > 100 µM
Cn1c2ccccc2c(=O)c2cccc(C(=O)NC(CCC(N)=O)C(=O)O)c21 (stereo not given) | > 100 µM
Nc1onc2c1Cc1c(noc1N)-c1ccccc1-2 | 83.8 µM
COc1cc(C2CC(c3ccc(Nc4ccnc5cc(Cl)ccc45)cc3)=NN2c2ccc(Cl)cc2)cc(OC)c1OC (stereo not given) | > 100 µM
OCCNCNc1nc(NCNCCO)nc(N(CNCCO)CNCCO)n1 | > 78.8 µM
C=C(Br)CNC(=O)CCC(=O)NCC(=C)Br | > 100 µM
CC1=C(C(=O)Nc2ccccc2)C2(CCCCC2)C(C#N)=C(SCC(=O)Nc2ccc(Br)cc2)N1 | 44.9 µM
COc1cc2c(cc1OCCCC(=O)Nc1ccc3ccc4cccc5ccc1c3c45)N=C[C@@H]1CCCN1C2=O | 0.064 µM
COc1cc2c(cc1OC)C13CCN4CC5CCOC6CC(=O)N2C1C6C5CC43 (stereo not given) | > 100 µM
C(=C\c1ccco1)/c1cccc(/C=C/c2ccco2)n1 | > 50 µM
N#C/C(N)=C(\C#N)NC(=O)C(=O)N/C(C#N)=C(\N)C#N | > 100 µM
Cc1cnc(C(=O)Nc2nc3ccc(S(=O)(=O)Nc4ccc(C5(C(F)(F)F)CC5)cc4)cc3[nH]2)cn1 | 6.54 µM
Cc1ccc(S(=O)(=O)NNCNC(=O)c2ccccc2)cc1 | > 100 µM
Cc1ccc(Cl)cc1NC(=O)c1sc2nc3c(cc2c1N)C(=O)CCC3 | > 100 µM
O=[N+]([O-])c1cc(-c2nc(-c3ccccc3)c(-c3ccccc3)[nH]2)c(O)c([N+](=O)[O-])c1 | > 100 µM
Cn1c(-c2cccc([N+](=O)[O-])c2)[n+](C)c2ccccc21 | > 100 µM
Oc1ccc2c(c1)-c1c(c3ccccc3n1CCN1CCOCC1)CC2 | > 100 µM
CNC(=O)CCC(NC(=O)OC(C)(C)C)C(=O)NC(Cc1ccc([N+](=O)[O-])cc1)C(=O)NCC(=O)NC (stereo not given) (Boc-Glu(NHMe)-[Phe(4-NO2)]-Gly-NHMe; configuration not given here) | > 100 µM
O=C(OC[C@H]1O[C@H](OC(=O)c2cc(O)c(O)c(OC(=O)c3cc(O)c(O)c(O)c3)c2)[C@H](OC(=O)c2cc(O)c(O)c(OC(=O)c3cc(O)c(O)c(O)c3)c2)[C@@H](OC(=O)c2cc(O)c(O)c(OC(=O)c3cc(O)c(O)c(O)c3)c2)[C@@H]1OC(=O)c1cc(O)c(O)c(OC(=O)c2cc(O)c(O)c(O)c2)c1)c1cc(O)c(O)c(OC(=O)c2cc(O)c(O)c(O)c2)c1 | > 25 µM
CCOC(=O)CCC(NC(=O)c1ccc(OCc2ccc3nc(-c4ccccc4)c(Cl)nc3c2)cc1)C(=O)OCC (stereo not given) | > 31.6 µM
Cc1nc2c(=O)n(C)ncc2[nH]1 | > 100 µM
Cc1ccccc1S(=O)(=O)Nn1cnc2ccc(S(=O)(=O)Nc3ccc(Cl)cc3)cc2c1=O | > 100 µM
CSc1nc(SC)c2c(CO)c(Br)n(Cc3ccccc3)c2n1 | 58.9 µM
CC(=O)O[C@H]1[C@H](OC(=O)CC(C)(O)CC(=O)O)C[C@]2(C)C3=C(CCC2C1(C)C)[C@]1(C)CC[C@H]([C@H]2CC[C@H](C(C)(C)O)OC2O)[C@@]1(C)[C@@H](O)C3 (stereo not given in full) | 41.9 µM
COI1NC(=O)c2ccccc21 | > 100 µM
COC(=O)C(CCSC)NC(=O)Cc1ccc(C(=O)c2ccccc2)cc1 (stereo not given) | > 100 µM
